# run_conditions: in toluene, 318.15 K
quantity: solubility (mole fraction)
Please state the value as a number alone, without comment.

Name the reported solubility (mole fraction) value associated with the compound COCC(=O)Nc1c(I)c(C(=O)NCC(O)CO)c(I)c(C(=O)N(C)CC(O)CO)c1I (stereo unspecified) 2.12e-05

----------
# run_conditions: in methanol, 293.15 K
quantity: solubility (mole fraction)
The answer should be a number; do not append a unit.

What does the data say about its solubility (mole fraction)? Entry: COCC(=O)Nc1c(I)c(C(=O)NCC(O)CO)c(I)c(C(=O)N(C)CC(O)CO)c1I (stereo unspecified) 0.000496

----------
# run_conditions: in acetone, 278.15 K
quantity: solubility (mole fraction)
Give a plain numeric answer without units written out.

Param item = COCC(=O)Nc1c(I)c(C(=O)NCC(O)CO)c(I)c(C(=O)N(C)CC(O)CO)c1I (stereo unspecified) ; retrieve measured solubility (mole fraction). 4.29e-05

----------
# run_conditions: in isopropanol, 318.15 K
quantity: solubility (mole fraction)
Keep it simple and answer with nothing but the number.

Item under review: COCC(=O)Nc1c(I)c(C(=O)NCC(O)CO)c(I)c(C(=O)N(C)CC(O)CO)c1I (stereo unspecified) . Reported solubility (mole fraction)? 0.000233

----------
# run_conditions: in DMF, 278.15 K
quantity: solubility (mole fraction)

GET /values?readout=solubility (mole fraction)&item= COCC(=O)Nc1c(I)c(C(=O)NCC(O)CO)c(I)c(C(=O)N(C)CC(O)CO)c1I (stereo unspecified) 0.0038

----------
# run_conditions: in ethanol, 298.15 K
quantity: solubility (mole fraction)
Give only the figure.

Value lookup for solubility (mole fraction); key = COCC(=O)Nc1c(I)c(C(=O)NCC(O)CO)c(I)c(C(=O)N(C)CC(O)CO)c1I (stereo unspecified) 0.000339

----------
# run_conditions: in isopropanol, 283.15 K
quantity: solubility (mole fraction)

Reported solubility (mole fraction) for COCC(=O)Nc1c(I)c(C(=O)NCC(O)CO)c(I)c(C(=O)N(C)CC(O)CO)c1I (stereo unspecified) : what is it? 7.52e-05

----------
# run_conditions: in ethanol, 303.15 K
quantity: solubility (mole fraction)
Number, no unit, nothing else.

Look up solubility (mole fraction) for this compound: COCC(=O)Nc1c(I)c(C(=O)NCC(O)CO)c(I)c(C(=O)N(C)CC(O)CO)c1I (stereo unspecified) 0.000384

----------
# run_conditions: in acetone, 293.15 K
quantity: solubility (mole fraction)

Value lookup for solubility (mole fraction); key = COCC(=O)Nc1c(I)c(C(=O)NCC(O)CO)c(I)c(C(=O)N(C)CC(O)CO)c1I (stereo unspecified) 7.88e-05

----------
# run_conditions: in methanol, 308.15 K
quantity: solubility (mole fraction)

Can you share its solubility (mole fraction)? I mean this compound: COCC(=O)Nc1c(I)c(C(=O)NCC(O)CO)c(I)c(C(=O)N(C)CC(O)CO)c1I (stereo unspecified) 0.00077

----------
# run_conditions: in isopropanol, 303.15 K
quantity: solubility (mole fraction)
Write the value as a bare number.

Name the recorded solubility (mole fraction) for COCC(=O)Nc1c(I)c(C(=O)NCC(O)CO)c(I)c(C(=O)N(C)CC(O)CO)c1I (stereo unspecified) . 0.00015

----------
# run_conditions: in isopropanol, 293.15 K
quantity: solubility (mole fraction)
The reply should be a number, written without any unit.

Entry under review: COCC(=O)Nc1c(I)c(C(=O)NCC(O)CO)c(I)c(C(=O)N(C)CC(O)CO)c1I (stereo unspecified) . Reported solubility (mole fraction)? 0.000108

----------
# run_conditions: in DMF, 273.15 K
quantity: solubility (mole fraction)
Lab note: jot down the number only; don't add units.

Return reported solubility (mole fraction); argument: COCC(=O)Nc1c(I)c(C(=O)NCC(O)CO)c(I)c(C(=O)N(C)CC(O)CO)c1I (stereo unspecified) 0.00368

----------
# run_conditions: in methanol, 298.15 K
quantity: solubility (mole fraction)
Give a plain numeric answer without units written out.

May I ask what solubility (mole fraction) has been recorded for COCC(=O)Nc1c(I)c(C(=O)NCC(O)CO)c(I)c(C(=O)N(C)CC(O)CO)c1I (stereo unspecified) ? 0.000576

----------
# run_conditions: in ethanol, 273.15 K
quantity: solubility (mole fraction)

Could you share which solubility (mole fraction) value was measured for COCC(=O)Nc1c(I)c(C(=O)NCC(O)CO)c(I)c(C(=O)N(C)CC(O)CO)c1I (stereo unspecified) ? 0.000152

----------
# run_conditions: in acetone, 288.15 K
quantity: solubility (mole fraction)
Number, no unit, nothing else.

// query solubility (mole fraction) value for entry COCC(=O)Nc1c(I)c(C(=O)NCC(O)CO)c(I)c(C(=O)N(C)CC(O)CO)c1I (stereo unspecified) 6.52e-05

----------
# run_conditions: in acetone, 308.15 K
quantity: solubility (mole fraction)
Please respond with just the number, no unit label.

Which measured solubility (mole fraction) value corresponds to COCC(=O)Nc1c(I)c(C(=O)NCC(O)CO)c(I)c(C(=O)N(C)CC(O)CO)c1I (stereo unspecified) ? 0.000128

----------
# run_conditions: in toluene, 273.15 K
quantity: solubility (mole fraction)

Looking for the measured solubility (mole fraction) of COCC(=O)Nc1c(I)c(C(=O)NCC(O)CO)c(I)c(C(=O)N(C)CC(O)CO)c1I (stereo unspecified) , can you help? 9.9e-06

----------
# run_conditions: in ethyl acetate, 303.15 K
quantity: solubility (mole fraction)
Lab note: jot the number down without any unit.

Requested field: solubility (mole fraction). Item: COCC(=O)Nc1c(I)c(C(=O)NCC(O)CO)c(I)c(C(=O)N(C)CC(O)CO)c1I (stereo unspecified) 6.84e-05

----------
# run_conditions: in ethanol, 283.15 K
quantity: solubility (mole fraction)
In your answer, state the number alone without any accompanying words.

What value of measured solubility (mole fraction) is listed for COCC(=O)Nc1c(I)c(C(=O)NCC(O)CO)c(I)c(C(=O)N(C)CC(O)CO)c1I (stereo unspecified) ? 0.000215

----------
# run_conditions: in acetone, 298.15 K
quantity: solubility (mole fraction)
Answer with the value's number alone.

Using the record for COCC(=O)Nc1c(I)c(C(=O)NCC(O)CO)c(I)c(C(=O)N(C)CC(O)CO)c1I (stereo unspecified) , report its solubility (mole fraction). 9.34e-05

----------
# run_conditions: in ethyl acetate, 278.15 K
quantity: solubility (mole fraction)
Reply briefly: the number, and no unit.

I am curious: what solubility (mole fraction) value has been reported for COCC(=O)Nc1c(I)c(C(=O)NCC(O)CO)c(I)c(C(=O)N(C)CC(O)CO)c1I (stereo unspecified) ? 2.01e-05

----------
# run_conditions: in methanol, 313.15 K
quantity: solubility (mole fraction)
Lab note: jot down the number only; don't add units.

Entry COCC(=O)Nc1c(I)c(C(=O)NCC(O)CO)c(I)c(C(=O)N(C)CC(O)CO)c1I (stereo unspecified) has what solubility (mole fraction)? 0.00088

----------
# run_conditions: in ethyl acetate, 293.15 K
quantity: solubility (mole fraction)
Format: numeric value only, no unit, no commentary.

Entry under review: COCC(=O)Nc1c(I)c(C(=O)NCC(O)CO)c(I)c(C(=O)N(C)CC(O)CO)c1I (stereo unspecified) . Reported solubility (mole fraction)? 4.52e-05

----------
# run_conditions: in ethanol, 308.15 K
quantity: solubility (mole fraction)

Consider the compound shown here: COCC(=O)Nc1c(I)c(C(=O)NCC(O)CO)c(I)c(C(=O)N(C)CC(O)CO)c1I (stereo unspecified) What is its recorded solubility (mole fraction)? 0.000437

----------
# run_conditions: in DMF, 288.15 K
quantity: solubility (mole fraction)

Any idea what its solubility (mole fraction) is? The compound is COCC(=O)Nc1c(I)c(C(=O)NCC(O)CO)c(I)c(C(=O)N(C)CC(O)CO)c1I (stereo unspecified) 0.00409

----------
# run_conditions: in toluene, 298.15 K
quantity: solubility (mole fraction)
Answer with the value's number alone.

Data request, read-out solubility (mole fraction), for COCC(=O)Nc1c(I)c(C(=O)NCC(O)CO)c(I)c(C(=O)N(C)CC(O)CO)c1I (stereo unspecified) 1.56e-05

----------
# run_conditions: in toluene, 288.15 K
quantity: solubility (mole fraction)

Entry under review: COCC(=O)Nc1c(I)c(C(=O)NCC(O)CO)c(I)c(C(=O)N(C)CC(O)CO)c1I (stereo unspecified) . Reported solubility (mole fraction)? 1.31e-05

----------
# run_conditions: in ethanol, 288.15 K
quantity: solubility (mole fraction)

State the recorded solubility (mole fraction) for this entry: COCC(=O)Nc1c(I)c(C(=O)NCC(O)CO)c(I)c(C(=O)N(C)CC(O)CO)c1I (stereo unspecified) 0.000254

----------
# run_conditions: in methanol, 273.15 K
quantity: solubility (mole fraction)
No unit in the answer, only the number.

Which solubility (mole fraction) reading was recorded for the molecule COCC(=O)Nc1c(I)c(C(=O)NCC(O)CO)c(I)c(C(=O)N(C)CC(O)CO)c1I (stereo unspecified) ? 0.000236
